molecular target: recombinant cynomolgus monkey CD3ε/δ heterodimer (cynomolgus monkey) (UniProt Q95LI5); test: BLI (Octet), antigen on anti-Penta His sensor, antibody 50 nM
Sequence (Q95LI5 22-117, stated change not applied, chain 1 of 2): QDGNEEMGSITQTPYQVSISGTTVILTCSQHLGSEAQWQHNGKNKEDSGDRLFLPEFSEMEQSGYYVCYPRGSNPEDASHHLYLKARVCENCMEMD
Sequence (Q95LI8 22-105, stated change not applied, chain 2 of 2, further chain): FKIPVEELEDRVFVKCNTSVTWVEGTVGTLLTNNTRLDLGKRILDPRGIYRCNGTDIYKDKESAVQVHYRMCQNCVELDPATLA

>  <binder>
Mouse human chimeric SP34 IgG1 antibody (antibody, V domains shown) VH: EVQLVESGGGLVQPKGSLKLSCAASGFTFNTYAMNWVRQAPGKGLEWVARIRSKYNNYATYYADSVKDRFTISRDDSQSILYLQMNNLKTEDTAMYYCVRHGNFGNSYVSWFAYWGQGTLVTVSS VL: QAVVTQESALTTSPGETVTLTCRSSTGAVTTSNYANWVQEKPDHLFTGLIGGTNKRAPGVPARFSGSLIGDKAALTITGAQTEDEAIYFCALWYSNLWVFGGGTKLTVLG

>  <koff>
5.3e-05 s⁻¹

$$$$
>  <binder>
D15 (antibody, human IgG1, lambda, L234A L235A, V domains shown) VH: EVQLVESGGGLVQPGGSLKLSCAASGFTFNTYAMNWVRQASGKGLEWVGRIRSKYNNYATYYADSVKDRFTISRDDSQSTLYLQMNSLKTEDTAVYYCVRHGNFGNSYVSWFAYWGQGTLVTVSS VL: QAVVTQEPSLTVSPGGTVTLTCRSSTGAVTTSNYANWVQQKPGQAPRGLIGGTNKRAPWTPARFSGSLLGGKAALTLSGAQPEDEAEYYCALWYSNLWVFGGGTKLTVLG

>  <koff>
0.000233 s⁻¹

$$$$
>  <binder>
B16 (antibody, human IgG1, lambda, L234A L235A, V domains shown) VH: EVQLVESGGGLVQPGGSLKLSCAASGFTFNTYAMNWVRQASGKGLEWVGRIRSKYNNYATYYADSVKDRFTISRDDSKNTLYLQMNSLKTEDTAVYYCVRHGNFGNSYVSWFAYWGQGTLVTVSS VL: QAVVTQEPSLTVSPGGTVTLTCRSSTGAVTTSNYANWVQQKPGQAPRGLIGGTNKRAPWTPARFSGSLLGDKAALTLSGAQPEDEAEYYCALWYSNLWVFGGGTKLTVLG

>  <koff>
0.000308 s⁻¹

$$$$
>  <binder>
B07 (antibody, human IgG1, lambda, L234A L235A, V domains shown) VH: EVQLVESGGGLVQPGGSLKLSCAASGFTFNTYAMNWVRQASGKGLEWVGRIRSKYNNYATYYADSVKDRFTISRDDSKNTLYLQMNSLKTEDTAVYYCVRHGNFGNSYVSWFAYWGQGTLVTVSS VL: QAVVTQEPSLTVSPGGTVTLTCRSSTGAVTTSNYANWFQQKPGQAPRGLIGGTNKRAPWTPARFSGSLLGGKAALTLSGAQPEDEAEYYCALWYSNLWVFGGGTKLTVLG

>  <koff>
0.00642 s⁻¹

$$$$
>  <binder>
D07 (antibody, human IgG1, lambda, L234A L235A, V domains shown) VH: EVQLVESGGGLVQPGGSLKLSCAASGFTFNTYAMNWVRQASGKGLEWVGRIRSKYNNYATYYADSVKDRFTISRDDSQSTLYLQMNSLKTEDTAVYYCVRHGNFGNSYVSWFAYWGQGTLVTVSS VL: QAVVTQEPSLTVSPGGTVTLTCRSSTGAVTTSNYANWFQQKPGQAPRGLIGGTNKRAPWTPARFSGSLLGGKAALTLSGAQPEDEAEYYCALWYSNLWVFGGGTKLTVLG

>  <koff>
0.00284 s⁻¹

$$$$
